Recorded fold over rodent (blocking, laminin/FACS) for the following binders
Molecular target: T1, human MCAM (melanoma cell adhesion molecule) expressed on transfected CHO cells (human, UniProt P43121 24-646)
T1 construct: also called hMCAM; CD146
T1 chain: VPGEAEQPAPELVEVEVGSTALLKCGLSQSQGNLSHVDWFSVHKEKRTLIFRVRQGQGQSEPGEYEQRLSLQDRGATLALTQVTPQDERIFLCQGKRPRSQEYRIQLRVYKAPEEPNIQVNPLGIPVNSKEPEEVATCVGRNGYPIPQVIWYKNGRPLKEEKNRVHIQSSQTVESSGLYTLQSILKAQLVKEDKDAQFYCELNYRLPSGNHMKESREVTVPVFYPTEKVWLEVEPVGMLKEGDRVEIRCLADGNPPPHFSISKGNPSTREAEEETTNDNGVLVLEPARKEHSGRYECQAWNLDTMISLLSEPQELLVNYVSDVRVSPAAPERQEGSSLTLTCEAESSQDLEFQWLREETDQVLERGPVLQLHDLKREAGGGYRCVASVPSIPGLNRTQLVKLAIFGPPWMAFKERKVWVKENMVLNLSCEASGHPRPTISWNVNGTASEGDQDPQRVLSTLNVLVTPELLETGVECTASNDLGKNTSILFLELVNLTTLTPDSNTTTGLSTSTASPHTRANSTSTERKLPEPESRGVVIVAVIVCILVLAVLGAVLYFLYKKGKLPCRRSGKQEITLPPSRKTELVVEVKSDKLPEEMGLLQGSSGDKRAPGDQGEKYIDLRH
Test: laminin/FACS on hMCAM CHO cells, competitor laminin 411; Expt#1; vs rodent 2107
Protocol: Following incubation for 30-45 minutes, the cells were washed and anti-laminin conjugated to AF650 (NovusBio) was added to detect the bound laminin. The cells were run on a flow cytometer to measure the laminin binding signal.
Give the value in fold but do not write fold after it.

Here are 5 binders together with their reported answers.
[
  {
    "BINDER": "h2107_VH1 + h2107_VL3 (antibody, human IgG1, V domains shown) VH: QVTLKESGPVLVKPTETLTLTCTVSGFSLTSNGVSWVRQPPGKALEWIAAISSGGSTYYNSAFKSRLTISRDTSKSQVVLTMTNMDPVDTATYYCARHRPFYFDYWGQGTLVTVSS VL: DIQMTQSPSSLSASVGDRVTINCKGSQNIYKSLAWFQQKPGKVPKLLIYDANSLQTGIPSRFSGSGSGTDFTLTISSLQPEDVATYYCQQYYSGYTFGGGTKVEIK",
    "RESULT_UNITS": "fold",
    "RECORDED_NUMBER": 2.6
  },
  {
    "BINDER": "h2107_VH5 + h2107_VL2 (antibody, human IgG1, V domains shown) VH: QVTLKESGPVLVKPTETLTLTCTVSGFSLTSQGVSWVRQPPGKALEWIAAISSGGSTYYNSAFKSRLTISPDTSKSQVVLTMTNMDPVDTATYYCARHRPFYFDYWGQGTLVTVSS VL: DIQMTQSPSSLSASVGDRVTITCKGSQNIYKSLAWFQLKPGKVPKLLIYDANSLQTGIPSRFSGSGSGTDFTLTISSLQPEDVATYYCQQYYSGYTFGGGTKVEIK",
    "RESULT_UNITS": "fold",
    "RECORDED_NUMBER": 1.6
  },
  {
    "BINDER": "h2107_VH1 + h2107_VL1 (antibody, human IgG1, V domains shown) VH: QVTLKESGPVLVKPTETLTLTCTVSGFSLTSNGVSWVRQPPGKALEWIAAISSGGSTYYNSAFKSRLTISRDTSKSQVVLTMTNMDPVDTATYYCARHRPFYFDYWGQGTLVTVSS VL: DIQMTQSPSSLSASVGDRVTITCKGSQNIYKSLAWFQQKPGKVPKLLIYDANSLQTGIPSRFSGSGSGTDFTLTISSLQPEDVATYYCQQYYSGYTFGGGTKVEIK",
    "RESULT_UNITS": "fold",
    "RECORDED_NUMBER": 2.3
  },
  {
    "BINDER": "h2107_VH6 + h2107_VL2 (antibody, human IgG1, V domains shown) VH: QVTLKESGPVLVKPTETLTLTCTVSGFSLTSNAVSWVRQPPGKALEWIAAISSGGSTYYNSAFKSRLTISRDTSKSQVVLTMTNMDPVDTATYYCARHRPFYFDYWGQGTLVTVSS VL: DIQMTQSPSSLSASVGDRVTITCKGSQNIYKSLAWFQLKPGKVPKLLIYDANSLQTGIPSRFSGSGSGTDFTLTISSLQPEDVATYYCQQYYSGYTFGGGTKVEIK",
    "RESULT_UNITS": "fold",
    "RECORDED_NUMBER": 4.8
  },
  {
    "BINDER": "h2107_VH1 + h2107_VL2 (antibody, human IgG1, V domains shown, also called VH1VL2) VH: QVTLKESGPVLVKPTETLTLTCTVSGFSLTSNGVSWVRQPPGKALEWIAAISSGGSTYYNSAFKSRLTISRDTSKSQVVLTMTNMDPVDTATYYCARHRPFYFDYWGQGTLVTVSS VL: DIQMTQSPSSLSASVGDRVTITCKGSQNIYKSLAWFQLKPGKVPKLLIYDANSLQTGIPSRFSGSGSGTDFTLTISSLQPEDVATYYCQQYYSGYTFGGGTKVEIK",
    "RESULT_UNITS": "fold",
    "RECORDED_NUMBER": 1.9
  }
]

Quick one: give measured fold over rodent (blocking, laminin/FACS) for rat anti-human MCAM monoclonal antibody clone 2107.4.10 (antibody, V domains shown, rat hybridoma antibody; elsewhere '83 or 84'); also called rodent 2107; murine 2107.4.10.18 anti-MCAM antibody) VH: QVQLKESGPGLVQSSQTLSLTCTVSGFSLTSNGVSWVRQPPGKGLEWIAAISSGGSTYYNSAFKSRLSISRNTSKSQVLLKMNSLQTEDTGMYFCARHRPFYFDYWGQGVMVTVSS VL: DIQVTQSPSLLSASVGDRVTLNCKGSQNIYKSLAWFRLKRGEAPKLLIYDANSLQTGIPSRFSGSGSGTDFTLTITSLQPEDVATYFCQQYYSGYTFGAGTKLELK
1

Return the recorded fold over rodent (blocking, laminin/FACS) value; entry: h2107_VH2 + h2107_VL2 (antibody, human IgG1, V domains shown, also called h2107VH2VL2; VH2VL2) VH: QVTLKESGPVLVKPTETLTLTCTVSGFSLTSNGVSWVRQPPGKALEWIAAISSGGSTYYNSAFKSRLSISRDTSKSQVVLTMTNMDPVDTATYYCARHRPFYFDYWGQGTLVTVSS VL: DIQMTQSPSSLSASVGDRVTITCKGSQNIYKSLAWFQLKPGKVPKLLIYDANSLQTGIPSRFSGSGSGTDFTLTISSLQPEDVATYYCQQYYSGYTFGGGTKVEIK
1.4
